System: SK-MEL-28 melanoma
assay.summary: NCI-60 one-dose screen, 48 h
cond: 10 µM unless noted
About 83,000 compounds went through this panel and 20% of them were active in at least one assay; those are over-represented in the sample as a whole. Calls of active or inactive are those of the source. The calls were made as follows: active = growth percent below 10; inactive = the rest.
Possible outcomes: YES = active, NO = inactive

molecule	discrete.label
Fc1ccc(NCc2nnc(-c3ccc(Cl)cc3)o2)cc1	NO
CC(C)(C)c1[nH]nc2c1C(c1cc3ccccc3[nH]c1=O)Nc1cc(C(=O)OCc3ccccc3)ccc1N2 (centres undefined)	NO
Cn1c(/C(C#N)=C/c2ccc3ccccc3c2)cc2ccccc21	NO
C=C(C)[C@@H]1CC[C@]2(C(=O)N3CCN(C)CC3)CC[C@]3(C)[C@H](CC[C@@H]4[C@@]5(C)C/C(=C/c6ccc(C(F)(F)F)cc6)C(=O)C(C)(C)[C@@H]5CC[C@]43C)[C@@H]12	NO
C=C(C)[C@@H]1CC[C@]2(C)[C@H](CC[C@@H]3[C@H]4[C@H]5OC[C@@]4(CCC5(C)C)CC[C@]32C)[C@@]1(C)CCCN	NO
CCNCCCn1c2c(c3ccc([N+](=O)[O-])cc3c1=O)C(=O)c1cc(OC)cnc1-2	YES
O=C1C(=O)N(CCCCn2cc(-c3ccccc3)nn2)c2ccccc21	NO
Cc1ccsc1-c1ccc2c(c1)COC2(CCCN(C)C)c1ccc(F)cc1 (centres undefined)	NO
Nc1ccc(Cl)cn1	NO
O=c1[nH]c2c3ccncc3cc(-c3cccc(Cl)c3)c2c2cnccc12	NO
COC(=O)[C@]12CC[C@@H](C)[C@H](C)[C@@H]1C1=CC[C@@H]3[C@@]4(C)CC(=O)[C@H](OC(=O)c5ccco5)[C@@]5(C)COC(=C45)C[C@@]3(C)[C@]1(C)CC2	NO
Cn1cc(-c2csc(-c3cn(C(=O)OC(C)(C)C)c4ccccc34)n2)c2cccnc21	NO
C#Cc1cccc(NC(=O)C2CCCN(C(=O)CCl)C2)c1 (centres undefined)	NO
C/C(=N\Nc1cc(C)c2cc(C)ccc2n1)c1ccccn1	YES
COc1cc2c(cc1-c1c(C)noc1C)ncc1nc(C3CCC(F)(F)CC3)n([C@@H](C)COC(F)F)c12	NO
Cc1cc(N=O)cc(C(C)(C)C)c1O	NO
Cc1ccc2[nH]cc(-c3nc(-c4cn(C)c5ncccc45)cs3)c2c1	NO
Cn1c2c(Cl)c(Cl)ccc2c2c(C#N)c[nH]c(=O)c21	NO
CC(C)=CCC/C(C)=C/CC/C(C)=C/CSC[C@H](NC(=O)CCCCCN1CCN(C)CC1)C(=O)NC1CCCCCC1	YES

----------
Test system: A549/ATCC NSCLC
assay.summary: NCI-60 one-dose screen, 48 h (100 = growth as untreated, 0 = no growth, -100 = all killed)
cond: 10 µM unless noted
The panel holds about 83,000 compounds, 20% with a hit somewhere; the sample as a whole holds those more often.
Reported growth by item:
property.measured: growth (%)

> print(dat)
                                   compound      system.name  observed.measurement
1  N#CC1=C(N)Oc2ccc3ccccc3c2C1c1ccccc1 (stereo not drawn)  A549/ATCC NSCLC                    51
2  C=C(C)[C@@H]1CC[C@]2(C=O)CC[C@]3(C)[C@H](CC[C@@H]4[C@@]5(C)C/C(=C/c6cccnc6)C(=O)C(C)(C)[C@@H]5CC[C@]43C)[C@@H]12  A549/ATCC NSCLC                  57.1
3  Cc1cc(Nc2ccc(F)cc2)nc(N2CCN(c3ccnc4cc(Cl)ccc34)CC2)n1  A549/ATCC NSCLC                  29.8
4      CC1(n2nnnc2N2CCCN(c3ncccc3N)CC2)CCC1  A549/ATCC NSCLC                   107
5  CC1(C)CC[C@]2(C(=O)NCCNCCN)CC[C@]3(C)C(=CC[C@@H]4[C@@]5(C)CCC(=O)C(C)(C)[C@@H]5CC[C@]43C)[C@@H]2C1  A549/ATCC NSCLC                  32.6
6  CC1(C)CC[C@]2(C(=O)Nc3ccccn3)CC[C@]3(C)C(=CC[C@@H]4[C@@]5(C)C/C(=C/c6ccncc6)C(=O)C(C)(C)[C@@H]5CC[C@]43C)[C@@H]2C1  A549/ATCC NSCLC                  26.6
7  Cc1cc(N(CCCNc2ccnc3cc(Cl)ccc23)Cc2ccco2)nc(N2CCOCC2)n1  A549/ATCC NSCLC                  83.1
8  O=C1C(=O)N(CCCCn2cc(-c3ccccc3)nn2)c2ccccc21  A549/ATCC NSCLC                   108
